TEST_PROTOCOL: Drug level in phosphate buffer treated with (Z)-1-(2-cyano-5-(4-(methylamino)benzoyloxy)-4-nitrophenoxy)-3,3-dimethyltriaz-1-ene 2-oxide at 1 uM at pH 7.4 at 37 degC after 30 secs by LC-MS analysis in presence of GSH
Format: physicochemical
CONDITION_PARAMETERS: pH 7.4, 0.5 min
MEASURED_PARAMETER: Drug metabolism

[
  {
    "MOL_SMILES": "CNc1ccc(C(=O)O)cc1",
    "MEASURED_PARAMETER": "Drug metabolism",
    "RESULT": "metabolite_detected"
  },
  {
    "MOL_SMILES": "CN(C)/[N+]([O-])=N/Oc1cc(O)c([N+](=O)[O-])cc1C#N",
    "MEASURED_PARAMETER": "Drug metabolism",
    "RESULT": "metabolite_detected"
  },
  {
    "MOL_SMILES": "CN(C)/[N+]([O-])=N/Oc1cc(SC[C@H](NC(=O)CC[C@H](N)C(=O)O)C(=O)NCC(=O)O)c([N+](=O)[O-])cc1C#N",
    "MEASURED_PARAMETER": "Drug metabolism",
    "RESULT": "metabolite_detected"
  },
  {
    "MOL_SMILES": "CNc1ccc(C(=O)SC[C@H](NC(=O)CC[C@H](N)C(=O)O)C(=O)NCC(=O)O)cc1",
    "MEASURED_PARAMETER": "Drug metabolism",
    "RESULT": "metabolite_detected"
  }
]
